System: 922993-354-T-J3-PDC complex spheroids, viability
assay-method-text: Anticancer human tumor 922993-354-T-J3-PDC patient-derived endometrial carcinoma cell line growth inhibition [GQUAD]
measurement-parameters: curve of first compound; second compound 0.1 µM
measure: pIC50
One number for each entry, as −log10 of the molar value.

molecule="O=C(NO)c1cnc(N2CCN(S(=O)(=O)c3ccc4ccccc4c3)CC2)nc1 + Cc1cnc(CNC(=O)c2c(=O)c3ccc(N4CCCN(C)CC4)nc3n3c2sc2ccccc23)cn1" measure=pIC50 value=7.07

# ---- query molecule ----
Problem: May I ask what pIC50 has been recorded for CC1COCCN1c1cc(C2(S(C)(=N)=O)CC2)nc(-c2ccnc3[nH]ccc23)n1 (stereo not drawn) + Cc1cnc(CNC(=O)c2c(=O)c3ccc(N4CCCN(C)CC4)nc3n3c2sc2ccccc23)cn1 ?
Solution: 5.26

* * *

Test system: 922993-354-T-J3-PDC complex spheroids, viability
assay-method-text: Anticancer human tumor 922993-354-T-J3-PDC cell line growth inhibition [GQUAD];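 further: spheroids exposed to compounds for seven days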;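 on viability, T/C: 100% = DMSO vehicle control viability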
measurement-parameters: second compound 1 µM; first compound 0.316 µM; stronger effect = lower value
Description: DNA G-quadruplex Stabilizer Agents in Combinations in Complex Spheroids A high-throughput screen of multi-cell type tumor spheroids was designed to identify active combinations of DNA G-quadruplex stabilizer agents and targeted small molecules. […] Compounds. […] If the clinical Cmax for an agent had not been determined, the highest concentration tested was 10 microM. […]
measure: viability, T/C (%)
Give bare numbers, in %.

compound="COc1ccc([C@@H](O)c2cc(-c3ncnc4cc(N5CCOCC5)ccc34)c(F)cc2Cl)nn1 + CN(C)c1ccc(Nc2c3ccc(NC(=O)CCN4CCCC4)cc3nc3cc(NC(=O)CCN4CCCC4)ccc23)cc1" value=104
compound="Cc1[nH]c2ccccc2c1CCNCc1ccc(/C=C/C(=O)NO)cc1 + CN(C)c1ccc(Nc2c3ccc(NC(=O)CCN4CCCC4)cc3nc3cc(NC(=O)CCN4CCCC4)ccc23)cc1" value=59.5

Next compound, please.
Problem: What viability, T/C value was documented for this compound, CC1COCCN1c1cc(C2(O)CC3CCC(C2)O3)c2cnn(-c3ccn[nH]3)c2n1 (stereo not drawn) + Cc1cnc(CNC(=O)c2c(=O)c3ccc(N4CCCN(C)CC4)nc3n3c2sc2ccccc23)cn1 ?
Solution: 50.8

* * *

System: 922993-354-T-J3-PDC complex spheroids, viability
assay-method-text: Anticancer human tumor 922993-354-T-J3-PDC cell line growth inhibition [GQUAD];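 further: spheroids exposed to compounds for seven days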;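 on viability, T/C: 100% = DMSO vehicle control viability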
measurement-parameters: second compound 0.0316 µM; first compound 0.0316 µM; stronger effect = lower value
Give measured viability, T/C for each item. Keep answers brief.
Numbers only, in %.

compound="COc1ncnc(C2CC2)c1-c1ncc2cnn(Cc3ccc(-c4nc(C(F)(F)F)cn4C(C)C)cc3)c2n1 + Cc1[nH]c2ccc(F)cc2c1-c1nc2c3cccnc3c3ncccc3c2[nH]1" target_or_test_system="922993-354-T-J3-PDC complex spheroids, viability" value=94.6
compound="COc1ccc([C@@H](O)c2cc(-c3ncnc4cc(N5CCOCC5)ccc34)c(F)cc2Cl)nn1 + CN(C)c1ccc(Nc2c3ccc(NC(=O)CCN4CCCC4)cc3nc3cc(NC(=O)CCN4CCCC4)ccc23)cc1" target_or_test_system="922993-354-T-J3-PDC complex spheroids, viability" value=101

Switching to the query record.
Problem: What viability, T/C value was documented for this compound, COc1cccc2c1C(=O)c1c(O)c3c(c(O)c1C2=O)CC(O)(C(=O)CO)CC3OC1CC(N)C(O)C(C)O1 (stereo not drawn) + CN(C)c1ccc(Nc2c3ccc(NC(=O)CCN4CCCC4)cc3nc3cc(NC(=O)CCN4CCCC4)ccc23)cc1 ?
Solution: 91.1
